B1: Rep15, full length (natural N101D variant) [human] / Rab3A, purified, nucleotide-loaded [human] (parent complex)
chain 1: MGQKASQQLALKDSKEVPVVCEVVSEAIVHAAQKLKEYLGFEYPPSKLCPAANTLNEIFLIHFITFCQEKGVDEWLTTTKMTKHQAFLFGADWIWTFWGSDKQIKLQLAVQTLQMSSPPPVESKPCDLSNPESRVEESSWKKSRFDKLEEFCNLIGEDCLGLFIIFGMPGKPKDIRGVVLDSVKSQMVRSHLPGGKAVAQFVLETEDCVFIKELLRNCLSKKDGLREVGKVYISIL
chain 2: MASATDSRYGQKESSDQNFDYMFKILIIGNSSVGKTSFLFRYADDSFTPAFVSTVGIDFKVKTIYRNDKRIKLQIWDTAGQERYRTITTAYYRGAMGFILMYDITNEESFNAVQDWSTQIKTYSWDNAQVLLVGNKCDMEDERVVSSERGRQLADHLGFEFFEASAKDNINVKQTFERLVDVICEKMSESLDTADPAVTGAKQGPQLSDQQVPPHQDCAC

- Variants of: B1
- ASSAY DETAILS: ITC
VALUE KIND: pKd
Answer as the number alone; pKd is minus log10 of concentration in mol/L.

Could you tell me which pKd is on file for chain 1 H84A ?
6.35

Origin of values: paper PMC9308819
